Origin of measurements: paper PMC5516890

target: PSMA (Homo sapiens, UniProt Q04609); assay: PSMA inhibition assay; format: biochemical; details: LNCaP cell lysates, 4 μM NAAG, 37 °C, 2 h; Cheng–Prusoff conversion
Sequence (Q04609 whole entry): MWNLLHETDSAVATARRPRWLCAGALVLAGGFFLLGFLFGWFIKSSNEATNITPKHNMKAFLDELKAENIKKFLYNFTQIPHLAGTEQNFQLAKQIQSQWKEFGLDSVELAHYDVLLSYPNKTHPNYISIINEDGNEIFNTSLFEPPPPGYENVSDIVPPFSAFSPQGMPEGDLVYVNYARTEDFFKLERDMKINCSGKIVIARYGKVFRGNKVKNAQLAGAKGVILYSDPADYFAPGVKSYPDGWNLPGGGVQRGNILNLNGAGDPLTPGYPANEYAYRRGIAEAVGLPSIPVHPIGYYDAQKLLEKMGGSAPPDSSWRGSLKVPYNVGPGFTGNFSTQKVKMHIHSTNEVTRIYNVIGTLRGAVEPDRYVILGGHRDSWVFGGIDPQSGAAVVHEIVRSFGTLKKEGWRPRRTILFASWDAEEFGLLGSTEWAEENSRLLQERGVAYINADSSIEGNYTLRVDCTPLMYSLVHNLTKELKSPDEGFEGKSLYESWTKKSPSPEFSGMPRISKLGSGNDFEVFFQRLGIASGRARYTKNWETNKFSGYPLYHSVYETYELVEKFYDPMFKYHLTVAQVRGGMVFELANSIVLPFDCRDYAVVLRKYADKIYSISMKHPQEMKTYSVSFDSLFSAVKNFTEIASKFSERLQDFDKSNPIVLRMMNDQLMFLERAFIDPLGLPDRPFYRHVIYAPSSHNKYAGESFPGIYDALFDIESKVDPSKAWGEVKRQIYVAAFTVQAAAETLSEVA
value.kind: Ki

>>> assay_value("O=C(O)CCC(NC(=O)NC(CCCCNC(=O)CCc1cn(CCF)nn1)C(=O)O)C(=O)O (stereo not shown)")
"12.9 nM"
